Numbers sourced from ChEMBL document CHEMBL1144377.

Measured IC50 by item
# System: Human immunodeficiency virus 1
# TEST: Inhibitory concentration against resistant (A17) human immunodeficiency virus
# Format: functional, organism-based
# value in µM; strip the unit string

In: Find the recorded IC50 belonging to Cc1cccc(C)c1OCC(=O)N[C@@H](Cc1ccccc1)[C@@H](O)C[C@H](Cc1ccccc1)NC(=O)[C@H](C(C)C)N1CCCNC1=O and report it.
Out: 1.24

In: Follow-up entry: Cc1nc(CN2CCN([C@H](C(=O)N[C@@H](Cc3ccccc3)[C@H](O)CN(CC(C)C)S(=O)(=O)c3ccc(/C=N\O)cc3)C(C)C)C2=O)cs1
Out: 0.031

In: Follow-up entry: Cc1nc(CN2CCN([C@H](C(=O)N[C@@H](Cc3ccccc3)[C@H](O)CN(CC(C)C)S(=O)(=O)c3ccc(N)cc3)C(C)C)C2=O)cs1
Out: 0.311

* * *

# Tested on: Human immunodeficiency virus 1
# TEST: Inhibitory concentration against resistant (A17) human immunodeficiency virus
# Type: functional, organism-based
pIC50: −log10 of the molar value.
Tick Condition met if pIC50 is 6 or greater. Tick Condition not met if pIC50 is less than 6.

Reference set (3 entries):
CO/N=C\c1ccc(S(=O)(=O)N(CC(C)C)C[C@@H](O)[C@H](Cc2ccccc2)NC(=O)[C@H](C(C)C)N2CCN(Cc3csc(C)n3)C2=O)cc1: Condition not met
Cc1nc(CN2CCN([C@H](C(=O)N[C@@H](Cc3ccccc3)[C@H](O)CN(CC(C)C)S(=O)(=O)c3ccc(C(=N)NO)cc3)C(C)C)C2=O)cs1: Condition met
CC(C)CN(C[C@@H](O)[C@H](Cc1ccccc1)NC(=O)O[C@H]1CCOC1)S(=O)(=O)c1ccc(N)cc1: Condition not met

In: Quick check: does Cc1nc(CN2CCN([C@H](C(=O)N[C@@H](Cc3ccccc3)[C@H](O)CN(CC(C)C)S(=O)(=O)c3ccc(NS(C)(=O)=O)cc3)C(C)C)C2=O)cs1 have pIC50 greater than or equal to 6?
Out: Condition not met

In: Follow-up entry: CC(C)c1nc(CN(C)C(=O)N[C@H](C(=O)N[C@@H](Cc2ccccc2)C[C@H](O)[C@H](Cc2ccccc2)NC(=O)OCc2cncs2)C(C)C)cs1
Out: Condition not met

In: Follow-up entry: Cc1nc(CN2CCN([C@H](C(=O)N[C@@H](Cc3ccccc3)[C@H](O)CN(CC(C)C)S(=O)(=O)c3ccc(CO)cc3)C(C)C)C2=O)cs1
Out: Condition met

In: Follow-up entry: Cc1nc(CN2CCN([C@H](C(=O)N[C@@H](Cc3ccccc3)[C@H](O)CN(CC(C)C)S(=O)(=O)c3ccc(NC=O)cc3)C(C)C)C2=O)cs1
Out: Condition not met

* * *

# Tested on: Human immunodeficiency virus 1
# TEST: Inhibitory concentration against resistant (A17) human immunodeficiency virus
# Type: functional, organism-based
pIC50: −log10 of the molar value.
Tick yes if pIC50 is 6 or greater. Tick no if pIC50 is less than 6.

Cc1nc(CN2CCN([C@H](C(=O)N[C@@H](Cc3ccccc3)[C@H](O)CN(CC(C)C)S(=O)(=O)c3ccc(C=O)cc3)C(C)C)C2=O)cs1: yes

In: Quick check: does Cc1nc(CN2CCN([C@H](C(=O)N[C@@H](Cc3ccccc3)[C@H](O)CN(CC(C)C)S(=O)(=O)c3ccc(C(=O)O)cc3)C(C)C)C2=O)cs1 have pIC50 greater than or equal to 6?
Out: no

In: Follow-up entry: Cc1nc(CN2CCN([C@H](C(=O)N[C@@H](Cc3ccccc3)[C@H](O)CN(CC(C)C)S(=O)(=O)c3cccc(/C=N\O)c3)C(C)C)C2=O)cs1
Out: yes
